assay: PSAC antagonists in infected red cells, primary screen, cell-based, P. falciparum Indochina, OD700, 1 h (AID 1154); details: P. falciparum Indochina infected RBC osmotic lysis, called active from +8 up or from −8 down
Active and inactive are the calls of the source.
Possible outcomes: active, inactive

>  <molecule>
[N-]=[N+]=NCc1ccccc1C[C@@]1(C(N)=O)N=C(c2ccc(OCCCO)cc2)O[C@@H]1c1ccccc1CN=[N+]=[N-]

>  <discrete.label>
active

$$$$
>  <molecule>
CN1C(=O)C2C=CC(C(O)C3CCCCC3)N(N3CCCCC3)C2C1=O (stereo not drawn)

>  <discrete.label>
inactive

$$$$
>  <molecule>
C=C(CCCC)/C(=C/C[C@@H](OC(C)=O)c1ccc(CO)o1)c1cc(C(=O)OC)ccc1OC

>  <discrete.label>
active

$$$$
>  <molecule>
O=C(O)[C@H](Cc1ccccc1)n1cc(-c2ccccn2)nn1

>  <discrete.label>
inactive

$$$$
>  <molecule>
C[C@]12C(=O)N(CCCCCCO)[C@@H]3C(=O)N(c4ccc(Cl)cc4)CC=CC31O[C@@H]1/C=C\CCCOC(=O)C12 (stereo partly drawn)

>  <discrete.label>
inactive

$$$$
>  <molecule>
NC(=O)NCC#Cc1ccc2c(c1)[C@]1(C(=O)N2)[C@H](C(=O)O)[C@H]2C(=O)O[C@H](c3ccccc3)[C@H](c3ccccc3)N2[C@@H]1c1ccccc1OCCO

>  <discrete.label>
inactive

$$$$
>  <molecule>
COC(=O)[C@@]1(Cc2ccccc2)[C@H]2c3cc(C(=O)N4CCCC4)[nH]c3C[C@H]2CN1C(=O)c1ccccc1

>  <discrete.label>
inactive

$$$$
>  <molecule>
COc1ccc([Si](C)(C)[C@@H]2[C@@H](CC(=O)N3CCC[C@H]3CO)O[C@]3(C(=O)N(Cc4ccc(N5C(=O)c6cccc7cccc5c67)cc4)c4ccccc43)[C@H]2C)cc1

>  <discrete.label>
inactive

$$$$
>  <molecule>
CC1CC/C=C\[C@H]2OC34C=CCN(CCN5CCOCC5)C(=O)[C@H]3N(CCO)C(=O)[C@@H]4C2C(=O)O1 (stereo partly drawn)

>  <discrete.label>
inactive

$$$$
>  <molecule>
C=C(COC)/C(=C/C[C@@H](OC(=O)c1ccncc1)c1cccc(OCCO)c1)c1cnc2ccccc2c1

>  <discrete.label>
active

$$$$
>  <molecule>
C[C@]1(C(=O)O)c2ccccc2C(=O)N(Cc2ccccc2)[C@H]1c1ccc(CO)cc1

>  <discrete.label>
inactive

$$$$
>  <molecule>
[N-]=[N+]=Nc1ccccc1[C@@H]1OC(c2ccc(OCCCO)cc2)=N[C@]1(CCS(=O)(=O)c1ccccc1)C(=O)NCCN1CCOCC1

>  <discrete.label>
active

$$$$
>  <molecule>
O=c1cccc(-c2cccc(Cl)c2)o1

>  <discrete.label>
active

$$$$
>  <molecule>
O=C1c2ccccc2[C@@]2(Cc3ccccc3N(C3CC3)C2=O)[C@H](c2ccc(CO)cc2)N1C1CCCCC1

>  <discrete.label>
inactive

$$$$
>  <molecule>
NCCCCCNC(=O)[C@@H]1C[C@@H]2C(=O)N[C@@H](CCCCN)C(=O)N2[C@@H]1c1cccc(OCCO)c1

>  <discrete.label>
inactive

$$$$
>  <molecule>
C=CCN1C(=O)[C@@]2(O[C@@H](CCn3cc([C@H](O)c4ccccc4)nn3)[C@H]([Si](C)(C)c3ccc(OC)cc3)[C@H]2C)c2ccccc21

>  <discrete.label>
inactive

$$$$
>  <molecule>
O=C(CS)NCCCCCCNC(=O)[C@H]1C[C@H]2C(=O)N[C@@H](Cc3ccccc3)C(=O)N2[C@H]1c1cccc(OCCO)c1

>  <discrete.label>
inactive

$$$$
>  <molecule>
CC=CC(O)C1C=CC2C(=O)N(C)C(=O)C2N1N1CCCCC1 (stereo not drawn)

>  <discrete.label>
inactive

$$$$

###

assay: HepG2 cell viability effects, profiling panel, calcein-AM fluorescence, 48 h, basal (AID 1164); conditions: higher = more signal; further: test concentration not given here
measurement.label: z-score

>  <smi>
C=CC[C@]12N=C(c3ccc(OCCCO)cc3)O[C@H]1c1ccccc1N(C)C2=O

>  <measurement.label>
z-score

>  <data.value>
-0.593

$$$$
>  <smi>
CCOC(=O)[C@H]1C/C=C/C[C@H](C(=O)OCC)C(=O)O[C@H]2[C@@H](OC)O[C@H](CO)[C@@H](OC(=O)CCc3ccccc3)[C@@H]2OC1=O

>  <measurement.label>
z-score

>  <data.value>
0.957

$$$$
>  <smi>
CC(=O)N1Cc2ccccc2C[C@]2(N=C(c3ccc(OCCCO)cc3)O[C@@H]2c2ccccc2)C1=O

>  <measurement.label>
z-score

>  <data.value>
-0.351

$$$$
>  <smi>
CC(C)(C)OC(=O)CC[C@]1(C(=O)O)N=C(c2ccc(OCCCO)cc2)O[C@H]1c1ccccc1

>  <measurement.label>
z-score

>  <data.value>
-0.0903

$$$$

###

experiment: RPMI8226 myeloma cell viability, profiling panel, resazurin fluorescence, basal, 24 h, PK04 Diversity Set (AID 1180); settings: higher = more signal;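 further: RPMI8826 multiple myeloma cell line at 5000 cells per well; test concentration not given here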

>  <smi>
CN(C)CCCN1C(=O)[C@@]2(c3ccc([N+](=O)[O-])cc3)CC(=O)N(CC34CC5CC(CC(C5)C3)C4)[C@@H]2c2ccc(CO)cc21

>  <z-score>
-0.959

$$$$
>  <smi>
CO[C@H]1O[C@H](CO)[C@@H](OC(=O)Nc2ccccc2-c2ccccc2)[C@H](OC(=O)Nc2ccc3c(c2)OCO3)[C@@H]1OC(=O)Nc1ccc2c(c1)OCO2

>  <z-score>
-1.12

$$$$
>  <smi>
[N-]=[N+]=Nc1ccccc1C[C@]1(C(=O)NCc2ccccc2)N=C(c2ccc(OCCCO)cc2)O[C@H]1c1ccccc1

>  <z-score>
-1.84

$$$$
>  <smi>
C[C@]1(C(=O)NCCN2CCOCC2)c2ccccc2C(=O)N(Cc2ccc(OC(F)(F)F)cc2)[C@H]1c1ccc(CO)cc1

>  <z-score>
0.206

$$$$
>  <smi>
C=CCN1C(=O)[C@]2(CC=C)N=C(c3ccc(OCCCO)cc3)O[C@@H]2c2ccccc21

>  <z-score>
-3.09

$$$$
>  <smi>
O=C1O[C@@H](c2ccccc2)[C@@H](c2ccccc2)N2[C@@H](c3ccc(O)cc3)[C@]3(C(=O)Nc4ccc(C#CCCO)cc43)[C@@H](C(=O)Nc3nc4ccccc4s3)[C@H]12

>  <z-score>
0.73

$$$$
>  <smi>
O=C1O[C@@H](c2ccccc2)[C@@H](c2ccccc2)N2[C@@H](c3ccccc3OCCO)[C@]3(C(=O)Nc4ccc(C#CC5=CCCCC5)cc43)[C@@H](C(=O)NC[C@H](O)c3ccccc3)[C@H]12

>  <z-score>
-5.79

$$$$
>  <smi>
COc1c(C)cc(-c2cc3c(c(Cc4ccccc4)n2)[Si](C(C)C)(C(C)C)OC3)cc1C

>  <z-score>
-0.661

$$$$
>  <smi>
O=C1c2ccccc2[C@@]2(Cc3ccccc3N(C3CC3)C2=O)[C@H](c2ccc(CO)cc2)N1C1CCCCC1

>  <z-score>
-0.546

$$$$
>  <smi>
O=C1c2ccccc2[C@](Cc2ccccc2I)(C(=O)NCc2ccccc2)[C@H](c2ccc(CO)cc2)N1C1CCCCC1

>  <z-score>
0.489

$$$$
>  <smi>
O=C1O[C@@H](c2ccccc2)[C@@H](c2ccccc2)N2[C@@H](c3ccccc3OCCO)[C@]3(C(=O)Nc4ccccc43)[C@@H](C(=O)NC[C@H](O)c3ccccc3)[C@H]12

>  <z-score>
-6.99

$$$$
>  <smi>
COc1ccc([Si](C)(C)[C@H]2[C@H](CCn3cc(CCO)nn3)O[C@@]3(C(=O)N(Cc4ccc(N5C(=O)c6cccc7cccc5c67)cc4)c4ccccc43)[C@@H]2C)cc1

>  <z-score>
-5.65

$$$$
>  <smi>
COC(=O)[C@@]1(Cc2ccc(OC)cc2)[C@H]2c3cc(C(=O)N(C)C)n(CCc4c[nH]c5ccc(O)cc45)c3C[C@H]2CN1C(=O)c1ccccc1

>  <z-score>
-2.36

$$$$
>  <smi>
C=CCOC(=O)[C@@H]1[C@H]2C(=O)O[C@H](c3ccccc3)[C@H](c3ccccc3)N2[C@H](c2ccc(OCCOC(=O)[C@H]3C[C@H]4C(=O)N[C@@H](CCCCNC(C)=O)C(=O)N4[C@H]3c3cccc(OCCO)c3)cc2)[C@@]12C(=O)Nc1ccc(I)cc12

>  <z-score>
-0.354

$$$$
>  <smi>
O=C(CS)NCCCCCCNC(=O)[C@@H]1C[C@@H]2C(=O)N3CCC[C@H]3C(=O)N2[C@@H]1c1cccc(OCCO)c1

>  <z-score>
0.356

$$$$

###

molecular target: NADPH oxidase 2 (Homo sapiens) (UniProt P04839); assay: NOX2-dependent H2O2 signal modulators, primary screen, NOX inhibitor project, cell-based, HEK293-NOX2, PMA-stimulated, Amplex Red fluorescence (AID 1159); conditions: 45 min, higher = more signal, called active from +8 up or from −8 down; further: test concentration not given here
Sequence (P04839 whole entry, looked up): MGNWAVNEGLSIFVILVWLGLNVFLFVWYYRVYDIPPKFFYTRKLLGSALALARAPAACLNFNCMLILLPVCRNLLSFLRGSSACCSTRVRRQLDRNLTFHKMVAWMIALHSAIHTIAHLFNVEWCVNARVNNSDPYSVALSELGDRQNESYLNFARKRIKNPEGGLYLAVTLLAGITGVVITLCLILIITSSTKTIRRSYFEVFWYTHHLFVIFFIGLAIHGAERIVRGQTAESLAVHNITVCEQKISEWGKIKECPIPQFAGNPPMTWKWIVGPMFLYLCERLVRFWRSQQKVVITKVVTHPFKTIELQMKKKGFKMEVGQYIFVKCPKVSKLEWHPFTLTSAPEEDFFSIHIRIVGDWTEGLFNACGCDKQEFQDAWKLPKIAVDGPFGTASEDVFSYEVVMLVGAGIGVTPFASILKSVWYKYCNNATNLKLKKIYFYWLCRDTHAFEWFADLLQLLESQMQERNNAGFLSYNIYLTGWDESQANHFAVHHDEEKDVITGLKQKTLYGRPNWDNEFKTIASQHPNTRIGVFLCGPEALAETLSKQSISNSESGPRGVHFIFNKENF
Categories are defined by ranges of z-score, namely lower segment: < -1; middle segment: ≥ -1 and < 0.3; upper segment: ≥ 0.3

>  <compound>
CCCCC(CC)C(O)C1C=CC2C(=O)N(c3ccccc3)C(=O)C2N1Nc1ccc([N+](=O)[O-])cc1 (configuration not stated)

>  <discrete.label>
middle segment

$$$$
>  <compound>
COc1cc2c(cc1O)C(C)N(Cc1cc3c(cc1Br)OCO3)CC2 (configuration not stated)

>  <discrete.label>
lower segment

$$$$
>  <compound>
CCOC(=O)[C@H]1C/C=C/C[C@H](C(=O)OCC)C(=O)O[C@H]2[C@@H](OC)O[C@H](CO)[C@@H](OC(=O)CCc3ccccc3)[C@@H]2OC1=O

>  <discrete.label>
middle segment

$$$$
>  <compound>
C=C(/C(=C/C[C@@H](OC(=O)c1ccncc1)c1ccccc1OCCO)c1cc(C(=O)OC)ccc1OC)C(C)C

>  <discrete.label>
middle segment

$$$$
>  <compound>
CCOC(=O)C1=C[C@@H](c2ccccc2)N(S(=O)(=O)c2ccc(C)cc2)[C@H]1c1cccc(Cl)c1

>  <discrete.label>
middle segment

$$$$
>  <compound>
C[n+]1ccc(CCCO)cc1

>  <discrete.label>
middle segment

$$$$
>  <compound>
COc1ccc(C#Cc2ccc3c(c2)[C@]2(C(=O)N3)[C@H](C(=O)N3CCc4cc(OC)c(OC)cc4C3)[C@H]3C(=O)O[C@H](c4ccccc4)[C@H](c4ccccc4)N3[C@@H]2c2ccc(O)cc2)cc1

>  <discrete.label>
upper segment

$$$$
>  <compound>
CC(CO)N1C(=O)[C@@H]2C3C(=O)OCCC/C=C\[C@H]3OC23C=CCN(Cn2nnc4ccccc42)C(=O)[C@@H]13 (some centres not stated)

>  <discrete.label>
upper segment

$$$$
>  <compound>
O=C1NC(=O)C2C1C=CC(C(O)c1ccc3c(c1)OCO3)N2Nc1ccccn1 (configuration not stated)

>  <discrete.label>
lower segment

$$$$
>  <compound>
C=CC[C@@]12N=C(c3ccc(OCCCO)cc3)O[C@@H]1c1ccccc1N(CCS(=O)(=O)c1ccccc1)C2=O

>  <discrete.label>
lower segment

$$$$
>  <compound>
CN(C)CCCN1C(=O)[C@@]2(c3ccc([N+](=O)[O-])cc3)CC(=O)N(CC34CC5CC(CC(C5)C3)C4)[C@@H]2c2ccc(CO)cc21

>  <discrete.label>
lower segment

$$$$
>  <compound>
O=C1O[C@@H](c2ccccc2)[C@@H](c2ccccc2)N2[C@@H](c3ccccc3OCCO)[C@]3(C(=O)Nc4ccccc43)[C@@H](C(=O)NC[C@H](O)c3ccccc3)[C@H]12

>  <discrete.label>
upper segment

$$$$
